measurement-description: TOX21_p53_BLA_p5_viability: Viability Assessment in the Tox21 HCT-116 p53 Agonism Beta-lactamase Assay, Phase 5 (AID 2283600)
Records with an inconclusive call do not appear. Calls of active or inactive are those of the source. How the source made its calls: active means hit-call score of the fitted dose curve at least 0.9, where 1 is the maximum; inconclusive means response in the unintended direction; inactive means score below 0.9.
Outcomes you can answer with include only these: active, inactive

molecule	class-assignment
C[C@H]1CCCC(=O)CCC/C=C/c2cc(O)cc(O)c2C(=O)O1	inactive
Cc1ccccc1N	inactive
Oc1cccc2cccnc12	inactive
CN(C)P(=O)(N(C)C)N(C)C	inactive
NC(=O)O	inactive
CCOC(=O)/C=C(C)/C=C/C[C@@H](C)CCCC(C)C	inactive
CCN1CCC2(CC1)COc1cc3c(cc12)N(C(=O)c1ccc(-c2ccc(-c4nnc(C)o4)cc2C)cc1)CC3	active
O=C(O)C(F)(F)C(F)(F)C(F)(F)C(F)(F)C(F)(F)C(F)(F)C(F)(F)C(F)(F)C(F)(F)C(F)(F)F	inactive

Record lookup: outcome of this test for ClC1=C(Cl)[C@]2(Cl)[C@H]3[C@H]([C@H]4C=C[C@H]3C4)[C@@]1(Cl)C2(Cl)Cl ?
inactive

Per the records of this test, what outcome belongs to COc1cccc(C=O)c1 ?
inactive

What did the test return for O=[N+]([O-])c1c(Cl)c(Cl)cc(Cl)c1Cl ?
inactive

What outcome does the record of this test show for COc1cc(OC)nc(NC(=O)NS(=O)(=O)c2ncccc2C(=O)N(C)C)n1 ?
inactive

Can you look up the reported call for O=[N+]([O-])c1ccc(O)c([N+](=O)[O-])c1 for me?
inactive

// param item: Cc1ccccc1C(=O)Nc1cccc(OC(C)C)c1 ; yields the recorded call
inactive

# lookup: test call for CCC(=O)c1ccccc1
inactive

For ClCc1ccccn1 , which call appears in the assay record?
inactive

How was O=C(OC1CCCCC1)c1ccccc1C(=O)OC1CCCCC1 classified in this test?
inactive

Tell me the recorded outcome of this test for O=C(O)C(Cl)(Cl)Cl .
inactive

Tell me the assay call for C[C@]12CCC(=O)C[C@@H]1CC[C@@H]1[C@@H]2CC[C@]2(C)[C@@H](O)CC[C@@H]12 please.
inactive

----------
experimental-system: Paired box protein Pax-6 (Homo sapiens)
measurement-description: ATG_Pax6_CIS: Attagene CIS-FACTORIAL HepG2 Assay for human Paired Box 6 (PAX6) (AID 2282956)
condition-info: HepG2 CIS-FACTORIAL PAX6 reporter transcription, RNA readout; actives raise or lower the signal
Active and inactive are the calls of the source. The calls were made as follows: active = hit-call score of the fitted dose curve at least 0.9, where 1 is the maximum; inactive = score below 0.9.
# valid calls are active, inactive; nothing else

Record excerpt, results attached:
compound-structure	experimental-system	class-assignment
CN(CCCC(=O)c1cccnc1)N=O	Paired box protein Pax-6 (Homo sapiens)	inactive
CCOP(=S)(OCC)Oc1nc(Cl)c(Cl)cc1Cl	Paired box protein Pax-6 (Homo sapiens)	inactive
C=CC#N	Paired box protein Pax-6 (Homo sapiens)	inactive
ClCCBr	Paired box protein Pax-6 (Homo sapiens)	inactive
COP(=S)(OC)Oc1ccc(Sc2ccc(OP(=S)(OC)OC)cc2)cc1	Paired box protein Pax-6 (Homo sapiens)	active

Query: recorded result category for C[C@@H](Oc1ccc(Cl)cc1Cl)C(=O)O in this test
inactive

// param item: ClCc1ccccn1 ; yields the recorded call
inactive

Give the logged outcome of this assay for the following molecule: O=C(Cl)c1ccc(Cl)cc1
inactive

Recorded test call requested for Cl/C=C\C[N+]12CN3CN(CN(C3)C1)C2
inactive

Call for entry COc1ccccc1OC :
inactive

Given CCc1ccccc1N , state the outcome it received in this test.
inactive

Each molecule tested received a call. Report the one for O=C(O)Cc1ccccc1 .
inactive

Please indicate how the test categorized CCNc1nc(NC(C)(C)C)nc(SC)n1 .
inactive
